Numbers sourced from paper PMC9482650.

Target: MAGI1_2, Q96QZ7
Sequence (Q96QZ7 456-580): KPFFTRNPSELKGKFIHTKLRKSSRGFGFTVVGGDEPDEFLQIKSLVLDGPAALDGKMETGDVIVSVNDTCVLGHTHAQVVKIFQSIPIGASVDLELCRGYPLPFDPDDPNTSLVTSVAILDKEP
Experiment: holdup assay
Set-up: key: below the threshold = too weak to quantify, mostly under pKd 3.1 to 4
Conditions: plain residues with an end cap or a label only (N-terminal biotin on a linker: ttds)
ATTRIBUTE_MEASURED: pKd
Reply: number alone, nothing else.

BINDER | pKd
RHTTSTETAV [HPV30-E6, P36809] | 4.39

Query: pKd; subject: KKYVDAETSL [SLC4A7, Q9Y6M7]
Result: 3.69

Query: Which pKd reading was recorded for the binder SSLQSLETSV [ATP2B4, P23634] ?
Result: 3.68

Query: Data request, read-out pKd, for RLQRRRETQV [HPV18-E6, P06463]
Result: 5.97
